Biological target: human organic cation transporter 3 (hOCT3) (Homo sapiens)
Construct: expressed in transfected cells; host or cells: HEK293
Test: Histamine incorporation experiment in HEK293 cells expressing hOCT3 (OCT3 inhibition activity)
Type: cell-based
Conditions: Tables 3-1 to 3-15; in a manner similar to Example 12 (30 μM there); concentration not given in the tables
quantity: OCT3 Inhibition Rate (%)

a: NC(N)=Nc1ncc(CSCCC(N)=NS(=O)(=O)c2ccccc2)s1
b: Cc1nc(CSCCc2nc(=O)c(CCc3ccccc3)c(C)[nH]2)cs1
Smaller OCT3 Inhibition Rate (%) value, a vs b ? Record your answer as the label of the chosen record. a
(a: 22.2%, b: 33.2%)

P: CC(=O)NC(=O)CCSCc1csc(N=C(N)N)n1
Q: NC(N)=Nc1nc(COCc2ccc(F)cc2)cs1
# argmax over OCT3 Inhibition Rate (%) for candidates P and Q Record your answer as the label of the chosen record. P
(P: 30.4%, Q: 20.6%)

A: NC(N)=Nc1nc(CCCc2ccc(F)cc2)cs1
B: CC(C)c1nc(CSCCC(N)=NS(N)(=O)=O)cs1
C: Cc1nc(CCSCc2csc(N(C)C)n2)[nH]c(=O)c1CCc1ccccc1
D: CSc1nc(CSCCC(N)=NS(=O)(=O)C(F)(F)F)cs1
// sort entries: OCT3 Inhibition Rate (%), high to low Returns: the labels arranged in the requested order. C, A, B, D
(C: 37.9%, A: 22.3%, B: 6.7%, D: −8.1%)

P: CNC(=O)CCSCc1csc(N=C(N)N)n1
Q: CCCCN/C(N)=N/c1nc(CSCCC(=N)N)cs1
Smaller OCT3 Inhibition Rate (%) value, P vs Q ? Record your answer as the label of the chosen record. P
(P: 16.3%, Q: 43.0%)

====

Molecular target: human organic cation transporter 3 (hOCT3) (Homo sapiens, UniProt O75751)
Construct: expressed in transfected cells; host or cells: HEK293
Sequence (O75751 whole entry): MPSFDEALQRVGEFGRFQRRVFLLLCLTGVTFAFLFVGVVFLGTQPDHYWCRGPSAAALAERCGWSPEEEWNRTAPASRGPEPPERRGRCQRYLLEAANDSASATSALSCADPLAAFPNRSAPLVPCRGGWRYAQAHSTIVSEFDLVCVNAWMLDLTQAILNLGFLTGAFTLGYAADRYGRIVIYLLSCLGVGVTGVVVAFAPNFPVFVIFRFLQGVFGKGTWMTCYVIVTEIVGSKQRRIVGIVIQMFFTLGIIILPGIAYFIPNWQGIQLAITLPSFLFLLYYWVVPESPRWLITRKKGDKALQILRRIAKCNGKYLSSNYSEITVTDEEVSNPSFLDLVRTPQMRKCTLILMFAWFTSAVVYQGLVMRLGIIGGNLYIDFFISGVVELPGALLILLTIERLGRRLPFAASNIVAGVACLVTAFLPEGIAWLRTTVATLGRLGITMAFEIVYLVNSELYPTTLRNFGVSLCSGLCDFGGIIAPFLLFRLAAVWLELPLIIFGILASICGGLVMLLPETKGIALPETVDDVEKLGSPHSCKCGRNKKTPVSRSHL
Assay: Histamine incorporation experiment in HEK293 cells expressing hOCT3 (OCT3 inhibition activity)
Assay type: cell-based
Details: HEK293; control curve
quantity: IC80 (µM)

Reference set, count: 2
NC(N)=Nc1nc(CCCC/C(N)=N/S(=O)(=O)C(F)(F)F)cs1 ... 90
NC(N)=Nc1cccc(CSCC/C(N)=N/S(=O)(=O)C(F)(F)F)n1 ... 30

I: Cc1nc(CCCCc2csc(N=C(N)N)n2)[nH]c(=O)c1CCc1ccccc1
II: Cc1nc(CCSCc2ccnc(N=C(N)N)c2)[nH]c(=O)c1CCc1ccccc1
III: NC(N)=Nc1cc(CSCC/C(N)=N/S(=O)(=O)C(F)(F)F)ccn1
IV: NC(N)=Nc1nc(CSCCC(N)=NS(N)(=O)=O)cs1 [FAMOTIDINE, famotidine, reference compound]
I would appreciate it if you could sort these 4 compounds by IC80, starting from the smallest number. Returns: the labels arranged in the requested order. I, III, II, IV

I: Cc1nc(CCSCc2cccc(N=C(N)N)n2)[nH]c(=O)c1CCc1ccccc1
II: NC(N)=Nc1nc(CSCCNC(=O)CO)cs1
# argmax over IC80 for candidates I and II Record your answer as the label of the chosen record. II

====

Biological target: human organic cation transporter 3 (hOCT3) (Homo sapiens, UniProt O75751)
Construct: expressed in transfected cells; host or cells: HEK293
Assay: Histamine incorporation experiment in HEK293 cells expressing hOCT3 (OCT3 inhibition activity)
Type: cell-based
Conditions: Tables 3-1 to 3-15; in a manner similar to Example 12 (30 μM there); concentration not given in the tables
quantity: OCT3 Inhibition Rate (%)

N=C(N)NCc1csc(N=C(N)N)n1 [SR-2236] ... −1.4

P: NC(CCSCc1cscn1)=NS(=O)(=O)C(F)(F)F [SR-3002]
Q: N=C(N)CCSCc1ccc([N+](=O)[O-])o1 [SR-2233]
R: CN(C)c1nc(CSCC/C(N)=N/S(=O)(=O)C(F)(F)F)cs1 [SR-2005]
// sort entries: OCT3 Inhibition Rate (%), high to low Returns: the labels arranged in the requested order. Q, P, R
(Q: 4.7%, P: −0.2%, R: −7.8%)
